- tested.target: Pim-2 (Homo sapiens (Human))
- Sequence (Q9P1W9 whole entry): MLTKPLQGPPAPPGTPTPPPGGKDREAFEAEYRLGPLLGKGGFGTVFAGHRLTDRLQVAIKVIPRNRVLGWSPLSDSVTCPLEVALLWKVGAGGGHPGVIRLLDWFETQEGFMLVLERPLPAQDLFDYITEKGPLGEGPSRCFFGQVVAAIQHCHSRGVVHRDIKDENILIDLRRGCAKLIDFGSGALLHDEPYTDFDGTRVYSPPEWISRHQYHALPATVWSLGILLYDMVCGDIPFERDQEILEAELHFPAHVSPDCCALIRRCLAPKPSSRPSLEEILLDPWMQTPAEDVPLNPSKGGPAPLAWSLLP
- method.description: Pim enzyme assay (HTRF, phosphorylation of biotinylated-BAD (S112) peptide), Pim-2
- Format: biochemical
- test.conditions: full length recombinant Pim-2, biotinylated-BAD (S112) peptide, HTRF, 96-well; read-out: Pim-2 IC50 IP
parameter.measured: IC50 (nM)
Kindly answer with a numeric value in nM, unit omitted.

Ask: Which IC50 is listed for N[C@H]1CCCN(c2ccncc2Nc2ncc3ccc(-c4ccccn4)nn23)C1 ?
Result: 6.4

Ask: Which IC50 is listed for N[C@H]1C[C@@H](F)CN(c2ccncc2Nc2ncc3ccc(-c4ncccc4F)nn23)C1 ?
Result: 10.9

Ask: Which IC50 is listed for C[C@@H]1C[C@H](N)CN(c2ccncc2Nc2ncc3ccc(-c4ccccc4F)nn23)C1 (single isomer, unassigned) [Example 46, tris(2,2,2-trifluoroacetate)] ?
Result: 0.1

Ask: Which IC50 is listed for C[C@@H]1C[C@H](N)CN(c2ccncc2Nc2ncc3ccc(-c4ncccc4Cl)nn23)C1 ?
Result: 0.5

Ask: Which IC50 is listed for C[C@@H]1C[C@H](N)CN(c2ccncc2Nc2nnc3ccc(-c4ncccc4F)nn23)C1 ?
Result: 10.6

Ask: Which IC50 is listed for N[C@H]1CCCN(c2ccncc2Nc2nnc3ccc(-c4c(F)cccc4F)nn23)C1 [Example 67, 2,2,2-trifluoroacetate] ?
Result: 35.4

Ask: Which IC50 is listed for N[C@@H]1C=C(c2ccncc2Nc2ncc3ccc(-c4c(F)cccc4F)nn23)CC[C@H]1F (racemic) [Example 93, (2,2,2-trifluoroacetate)] ?
Result: 15.5

Ask: Which IC50 is listed for N[C@H]1C[C@@H](F)CN(c2ccncc2Nc2ncc3ccc(-c4c(F)cccc4F)nn23)C1 [Example 48, tris(2,2,2-trifluoroacetate)] ?
Result: 3.2

Ask: Which IC50 is listed for N[C@@H]1CCCN(c2ccncc2Nc2ncc3ccc(-c4c(F)cccc4F)nn23)C1 ?
Result: 35.2

Ask: Which IC50 is listed for N[C@H]1CCCN(c2ccncc2Nc2ncc3ccc(-c4ncccc4F)nn23)C1 ?
Result: 1.1

Ask: Which IC50 is listed for Cc1cc(N)cc(-c2ccncc2Nc2ncc3ccc(-c4c(F)cccc4F)nn23)c1 ?
Result: 34.4

Ask: Which IC50 is listed for C[C@H]1CCN(c2ccncc2Nc2ncc3ccc(-c4c(F)cccc4F)nn23)C[C@H]1N (single isomer, unassigned) [Example 99, bis(2,2,2-trifluoroacetate)] ?
Result: 1.6

Ask: Which IC50 is listed for C[C@@H]1C[C@H](N)CN(c2ccncc2Nc2ncc3ccc(-c4cc(C(=O)NC5CC5)ccc4F)nn23)C1 ?
Result: 0.1

====

- tested.target: Pim-1 (Homo sapiens (Human), UniProt P11309)
- Sequence (P11309 whole entry): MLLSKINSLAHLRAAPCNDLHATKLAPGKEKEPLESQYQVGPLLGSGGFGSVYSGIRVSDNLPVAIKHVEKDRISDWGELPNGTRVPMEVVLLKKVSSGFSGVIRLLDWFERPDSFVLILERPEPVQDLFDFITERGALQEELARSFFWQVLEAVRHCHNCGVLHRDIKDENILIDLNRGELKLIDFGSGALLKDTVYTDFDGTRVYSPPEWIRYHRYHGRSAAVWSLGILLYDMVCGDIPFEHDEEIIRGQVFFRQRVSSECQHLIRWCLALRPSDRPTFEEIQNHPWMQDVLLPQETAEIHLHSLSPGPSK
- method.description: Pim enzyme assay (HTRF, phosphorylation of biotinylated-BAD (S112) peptide), Pim-1
- Format: biochemical
- test.conditions: full length recombinant Pim-1, biotinylated-BAD (S112) peptide, HTRF; read-out: Pim_1_IC50
pIC50: −log10 of the molar value.
Assign yes (1) to entries whose pIC50 meets or exceeds 8; assign no (0) to the rest.

Ask: Assess whether reported pIC50 for N[C@H]1CCCN(c2ccncc2Nc2ncc3ccc(-c4ccc(Cl)cc4Cl)nn23)C1 sits at 8 or higher.
Result: yes (1)

Ask: Assess whether reported pIC50 for O=c1ccc(-c2ccncc2Nc2ncc3ccc(-c4c(F)cccc4F)nn23)c[nH]1 sits at 8 or higher.
Result: no (0)

Ask: Assess whether reported pIC50 for Clc1ccccc1-c1ccc2cnc(Nc3cnccc3O[C@@H]3CCCNC3)n2n1 [Example 10, bis(2,2,2-trifluoroacetate)] sits at 8 or higher.
Result: no (0)

Ask: Assess whether reported pIC50 for O[C@@H]1CCCN(c2ccncc2Nc2ncc3ccc(-c4nccs4)nn23)C1 sits at 8 or higher.
Result: no (0)

Ask: Assess whether reported pIC50 for C[C@H]1CN(c2ccncc2Nc2ncc3ccc(-c4c(F)cccc4F)nn23)C[C@@H](N)[C@@H]1O sits at 8 or higher.
Result: yes (1)

Ask: Assess whether reported pIC50 for N[C@H]1CCCN(c2ccncc2Nc2ncc3ccc(-c4nccs4)nn23)C1 sits at 8 or higher.
Result: yes (1)

Ask: Assess whether reported pIC50 for N[C@H]1CCCN(c2ccncc2Nc2ncc3ccc(Cl)nn23)C1 sits at 8 or higher.
Result: no (0)
